System: Danio rerio Tg(wt1b:EGFP) embryo, pronephros
Assay: pronephric angle neck segment to proximal convoluted tubule (mean of left and right), fold change vs DMSO control; higher = larger pronephric angle
Conditions: 25 µM; exposure: 24-48 hpf
Experimental readout: pronephric angle neck segment
One number for each entry.

Here is how some compounds turned out for pronephric angle neck segment.
Quick note, pronephric angle neck segment for CC1(C)NC(=O)N(c2ccc([N+](=O)[O-])c(C(F)(F)F)c2)C1=O [Nilutamide] landed at 0.945

Quick note, pronephric angle neck segment for CCCCNc1ccc(C(=O)OCCOCCOCCOCCOCCOCCOCCOCCOCCOC)cc1 [Benzonatate] landed at 1.09

Quick note, pronephric angle neck segment for `CC(=O)OCC(=O)[C@@]12N=C(C)O[C@@H]1C[C@H]1[C@@H]3CCC4=CC(=O)C=C[C@]4(C)[C@H]3[C@@H](O)C[C@@]12C` landed at 0.944

Now look at this entry.
Quick note, pronephric angle neck segment for NS(=O)(=O)c1cc2c(cc1C(F)(F)F)NC(Cc1ccccc1)NS2(=O)=O (centres undefined) [Bendroflumethiazide] landed at 1.09

----------
Tested on: Danio rerio Tg(wt1b:EGFP) embryo, pronephros
Test: glomerular separation, fold change vs DMSO control; higher = glomeruli further apart (abnormal)
Settings: 25 µM; exposure: 24-48 hpf
Structures can show the parent of a compound that is named as a salt.
Experimental readout: glomerular separation
Give bare numbers.

Give glomerular separation for all molecules that follow.
1. Nc1ncnc2c1ncn2[C@@H]1O[C@H](CO)[C@@H](O)[C@@H]1O
2. CCOC(=O)N1CCC(=C2c3ccc(Cl)cc3CCc3cccnc32)CC1
3. COc1cc(C(=O)NC2CCCNC2)cc(OC)c1OC (centres undefined) [Troxipide]

1. 1.29
2. 1.4
3. 1.14

Give glomerular separation for all molecules that follow.
1. N=C(N)NC(=O)c1nc(Cl)c(N)nc1N [Amiloride hydrochloride dihydrate]
2. COC(=O)C1=C(C)NC(C)=C(C(=O)OC2CCCN(Cc3ccccc3)C2)C1c1cccc([N+](=O)[O-])c1 (centres undefined) [Benidipine hydrochloride]
3. COC(=O)Nc1nc2cc(C(=O)c3cccs3)ccc2[nH]1

0.835
4.55
1.86

Give glomerular separation for all molecules that follow.
1. COc1cc(Cc2cnc(N)nc2N)cc(OC)c1OC
2. C[C@]12CC[C@H]3C(=CCc4cc(O)ccc43)[C@@H]1CCC2=O
3. CCSc1ccc2c(c1)N(CCCN1CCN(C)CC1)c1ccccc1S2 [Thiethylperazine dimalate]

[1.48, 1.59, 0.677]

----------
For each record, write down the corresponding glomerular separation.
System: Danio rerio Tg(wt1b:EGFP) embryo, pronephros
Assay: glomerular separation, fold change vs DMSO control; higher = glomeruli further apart (abnormal)
Conditions: 25 µM; exposure: 24-48 hpf
Where a name gives a salt, the structure may show the parent alone.
Give bare numbers.

Quick note, glomerular separation for Cc1c(N)c(=O)n(-c2ccccc2)n1C [Ampyrone] landed at 0.975

Quick note, glomerular separation for Nc1nc2c(ncn2COCCO)c(=O)[nH]1 [Acyclovir] landed at 1.05

Quick note, glomerular separation for O=C1c2c(O)ccc(O)c2C(=O)c2c(NCCNCCO)ccc(NCCNCCO)c21 [Mitoxantrone dihydrochloride] landed at 1.13

Give glomerular separation for all compounds that follow.
1. CC1(C)S[C@@H]2[C@H](NC(=O)Cc3ccccc3)C(=O)N2[C@H]1C(=O)O [Benzylpenicillin sodium]
2. O=C1[C@H](CC[C@H](O)c2ccc(F)cc2)[C@@H](c2ccc(O)cc2)N1c1ccc(F)cc1 [Ezetimibe]
3. CO[C@H]1C[C@H](O[C@H]2[C@H](C)[C@@H](O[C@@H]3O[C@H](C)C[C@H](N(C)C)[C@H]3OC(C)=O)[C@@H](C)C[C@@]3(CO3)C(=O)[C@H](C)[C@@H](OC(C)=O)[C@@H](C)[C@@H](C)OC(=O)[C@@H]2C)O[C@@H](C)[C@@H]1OC(C)=O [Troleandomycin]

0.915
1.28
1.39

Quick note, glomerular separation for CC[N+](C)(CC)CCC[n+]1c(-c2ccccc2)c2cc(N)ccc2c2ccc(N)cc21 [Propidium iodide] landed at 0.946
